Numbers sourced from ChEMBL document CHEMBL2016556.

Entries and their measured EC50 follow.
# System: Hepatitis C virus
# protocol.text: Antiviral activity against Hepatitis C virus genotype 1b expressing wild type NS3/4A protease infected in HuH7 cells
# Type: functional, organism-based, Hepacivirus hominis
# condition.summary: Huh-7
Give the number; nM is assumed, so skip it.

Value of measured EC50 for the entry COc1ccc2c(O[C@@H]3C[C@H]4C(=O)N[C@]5(C(=O)NS(=O)(=O)C6CC6)C[C@H]5/C=C\CCCCCC(OC(=O)NC(C)(C)C)C(=O)N4C3)cc(-c3nc(C(C)C)cs3)nc2c1C (some centres undefined) : 1.2

EC50 recorded for this compound, COc1ccc2c(O[C@@H]3C[C@H]4C(=O)N[C@]5(C(=O)NS(=O)(=O)C6CC6)C[C@H]5/C=C\CCCCCC(OC(=O)N5CCCCC5)C(=O)N4C3)cc(-c3nc(C(C)C)cs3)nc2c1C (some centres undefined) , is 7.1

// EC50 value for COc1ccc2c(O[C@@H]3C[C@H]4C(=O)N[C@]5(C(=O)NS(=O)(=O)C6CC6)C[C@H]5/C=C\CCCCCC(OC(=O)n5ccnc5)C(=O)N4C3)cc(-c3nc(C(C)C)cs3)nc2c1C (some centres undefined) : 0.5

Noted for CC(C)(C)OC(=O)N[C@H]1CCCCC/C=C\[C@@H]2C[C@@]2(C(=O)NS(=O)(=O)C2CC2)NC(=O)[C@@H]2C[C@@H](OC(=O)N3Cc4cccc(F)c4C3)CN2C1=O [DANOPREVIR] : its EC50 reads 0.1

---

# System: Hepatitis C virus
# protocol.text: Antiviral activity against Hepatitis C virus genotype 1b expressing wild type NS3/4A protease infected in HuH7 cells
# Format: functional, organism-based, Hepacivirus hominis
# condition.summary: Huh-7
measured.attribute: pEC50
Scale note: pEC50 = -log10(concentration in M).

Some entries whose results are on file:
CCOC1CCCCC/C=C\[C@@H]2C[C@@]2(C(=O)NS(=O)(=O)C2CC2)NC(=O)[C@@H]2C[C@@H](Oc3cc(-c4nc(C(C)C)cs4)nc4c(C)c(OC)ccc34)CN2C1=O (stereo partly drawn); 7.20
COc1ccc2c(O[C@@H]3C[C@H]4C(=O)N[C@]5(C(=O)NS(=O)(=O)C6CC6)C[C@H]5/C=C\CCCCCC(OC(=O)OC(C)(C)C)C(=O)N4C3)cc(-c3nc(C(C)C)cs3)nc2c1C (stereo partly drawn); 7.20

Now for the molecule whose pEC50 we want.
// field: pEC50; key: COc1ccc2c(O[C@@H]3C[C@H]4C(=O)N[C@]5(C(=O)NS(=O)(=O)C6CC6)C[C@H]5/C=C\CCCCCC(O)C(=O)N4C3)cc(-c3nc(C(C)C)cs3)nc2c1C (stereo partly drawn) ; value = 8.89

---

# Test system: Hepatitis C virus
# protocol.text: Antiviral activity against Hepatitis C virus genotype 1b infected in HuH7 cells
# Format: functional, organism-based, Hepacivirus hominis
# condition.summary: Huh-7
pEC50: −log10 of the molar value.
Classify as follows. Reported pEC50 greater than or equal to 8: Criterion met. Reported pEC50 below: Criterion not met.

Examples from the recorded data:
CCOC1CCCCC/C=C\[C@@H]2C[C@@]2(C(=O)NS(=O)(=O)C2CC2)NC(=O)[C@@H]2C[C@@H](Oc3cc(-c4nc(C(C)C)cs4)nc4c(C)c(OC)ccc34)CN2C1=O (stereo partly specified); Criterion not met
COc1ccc2c(O[C@@H]3C[C@H]4C(=O)N[C@]5(C(=O)NS(=O)(=O)C6CC6)C[C@H]5/C=C\CCCCCC(OC(=O)NC(C)(C)C)C(=O)N4C3)cc(-c3nc(C(C)C)cs3)nc2c1C (stereo partly specified); Criterion met
COc1ccc2c(O[C@@H]3C[C@H]4C(=O)N[C@]5(C(=O)NS(=O)(=O)C6CC6)C[C@H]5/C=C\CCCCCC(OC(=O)n5ccnc5)C(=O)N4C3)cc(-c3nc(C(C)C)cs3)nc2c1C (stereo partly specified); Criterion met
COc1ccc2c(O[C@@H]3C[C@H]4C(=O)N[C@]5(C(=O)NS(=O)(=O)C6CC6)C[C@H]5/C=C\CCCCCC(O)C(=O)N4C3)cc(-c3nc(C(C)C)cs3)nc2c1C (stereo partly specified); Criterion met
COc1ccc2c(O[C@@H]3C[C@H]4C(=O)N[C@]5(C(=O)NS(=O)(=O)C6CC6)C[C@H]5/C=C\CCCCCC(OC(=O)N5CCCCC5)C(=O)N4C3)cc(-c3nc(C(C)C)cs3)nc2c1C (stereo partly specified); Criterion met

Next, consider the following molecule.
QUERY: Does the molecule COc1ccc2c(O[C@@H]3C[C@H]4C(=O)N[C@]5(C(=O)NS(=O)(=O)C6CC6)C[C@H]5/C=C\CCCCCC(OC(=O)OC(C)(C)C)C(=O)N4C3)cc(-c3nc(C(C)C)cs3)nc2c1C (stereo partly specified) have recorded pEC50 that is 8 or more?
RESULT: Criterion not met
